These data points were gathered from the supplement of paper PMC6757056.

Please respond with reported FACS-Seq fitted mean (log10) for every item in the list.
B1: library; a variant is named by its letters at N, in order (parent)
chain: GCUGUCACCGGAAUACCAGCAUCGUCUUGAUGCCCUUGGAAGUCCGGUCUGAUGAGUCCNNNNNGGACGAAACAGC

variants of: B1; experiment: FACS-Seq fitted mean relative fluorescence mCherry/BFP without ligand (log10 relative fluorescence); higher = higher reporter protein expression; conditions: HEK293T, ligand present: no
Just the number, please.

Input line: Report FACS-Seq fitted mean (log10) for `GCUGUCACCGGAAUACCAGCAUCGUCUUGAUGCCCUUGGAAGUCCGGUCUGAUGAGUCCCCGAUGGACGAAACAGC` please.
Output line: 0.974

Input line: Next up: `GCUGUCACCGGAAUACCAGCAUCGUCUUGAUGCCCUUGGAAGUCCGGUCUGAUGAGUCCCUAAAGGACGAAACAGC`
Output line: 0.216

Input line: Next up: `GCUGUCACCGGAAUACCAGCAUCGUCUUGAUGCCCUUGGAAGUCCGGUCUGAUGAGUCCCCCGAGGACGAAACAGC`
Output line: 0.977

Input line: Next up: `GCUGUCACCGGAAUACCAGCAUCGUCUUGAUGCCCUUGGAAGUCCGGUCUGAUGAGUCCAGAUGGGACGAAACAGC`
Output line: 0.533

Input line: Next up: `GCUGUCACCGGAAUACCAGCAUCGUCUUGAUGCCCUUGGAAGUCCGGUCUGAUGAGUCCACACAGGACGAAACAGC`
Output line: 0.454

Input line: Next up: `GCUGUCACCGGAAUACCAGCAUCGUCUUGAUGCCCUUGGAAGUCCGGUCUGAUGAGUCCUGAGAGGACGAAACAGC`
Output line: 0.307

Input line: Next up: `GCUGUCACCGGAAUACCAGCAUCGUCUUGAUGCCCUUGGAAGUCCGGUCUGAUGAGUCCAAAUUGGACGAAACAGC`
Output line: 0.984

Input line: Next up: `GCUGUCACCGGAAUACCAGCAUCGUCUUGAUGCCCUUGGAAGUCCGGUCUGAUGAGUCCCUGAAGGACGAAACAGC`
Output line: 0.385

Input line: Next up: `GCUGUCACCGGAAUACCAGCAUCGUCUUGAUGCCCUUGGAAGUCCGGUCUGAUGAGUCCACUGAGGACGAAACAGC`
Output line: 0.423

Input line: Next up: `GCUGUCACCGGAAUACCAGCAUCGUCUUGAUGCCCUUGGAAGUCCGGUCUGAUGAGUCCGCAUGGGACGAAACAGC`
Output line: 0.829
